Value source: patent US9353090B2

assay: physchem; settings: pH 2.2, aqueous buffer, kinetic from dmso stock, Solubility (pH 2.2)
observed-property: solubility at 24 h (µg/mL)
Answers are plain numbers, in µg/mL.

CCO[C@@H]1CN(c2cccc(-c3cccc(Cl)c3OCc3cc(C)c4c(c3)CCN(C3CCOCC3)C4)n2)CC[C@@H]1C(=O)O [Compound 259] = 150
CCc1cc(COc2c(C)cccc2-c2cccc(N3C[C@@H]4C[C@]4(C(=O)O)[C@H]3COC)n2)cc2c1CN(C1CCOC1)CC2 (stereo partly drawn) [Compound 55] = 150
Cc1ccc(OCc2ccc3c(c2C)CCN(C2CCOCC2)C3)c(-c2csc(N3C[C@@H]4C[C@]4(C(=O)O)C3)n2)c1 [Compound 146] = 110
Cc1cc(COc2c(C)cccc2-c2cccc(N3C[C@@H]4C[C@]4(C(=O)O)C3)n2)cc2c1CN(C1COC1)CC2 [Compound 23] = 100
Cc1ccc(OCc2cc(C)c3c(c2C)CCN(C2CCCOC2)C3)c(-c2csc(N3CC[C@@]4(C(=O)O)C[C@H]4C3)n2)c1 (stereo partly drawn) [Compound 128] = 120

Now examine the next entry.
Answer with the recorded solubility at 24 h of CO[C@H]1CN(c2nc(-c3cccc(C)c3OCc3ccc4c(c3C)CCN(C3CCOCC3)CC4)cs2)CC[C@H]1C(=O)O [Compound 288] only.
117
